# PROTOCOL_NOTES: Half life in Kunming mouse brain homogenate at 10^-2 mol/L by RP-HPLC analysis
# Type: ADME, tissue-based
Quick list: half-life per entry.

Some entries whose results are on file:
C=C(C(N)=O)[C@@H](NC(=O)[C@H](Cc1ccccc1)NC(=O)[C@@H](CCCNC(N)=O)NC(=O)[C@@H](N)Cc1ccc(O)cc1)c1ccco1
> 5 h
C=C(C(N)=O)[C@@H](NC(=O)[C@H](Cc1ccccc1)NC(=O)[C@@H](CCCNC(=N)N)NC(=O)[C@@H](N)Cc1ccc(O)cc1)c1ccco1
> 5 h
C=C(C(N)=O)[C@@H](NC(=O)[C@H](Cc1c[nH]c2ccccc12)NC(=O)[C@@H](CCCNC(=N)N)NC(=O)[C@@H](N)Cc1ccc(O)cc1)c1ccco1
> 5 h
NC(=O)[C@H](Cc1ccccc1)NC(=O)[C@H](Cc1ccccc1)NC(=O)[C@@H]1CCCN1C(=O)[C@@H](N)Cc1ccc(O)cc1 [ENDOMORPHIN 2]
0.207 h

Data request: Endpoint output: half-life of C=C(C(N)=O)[C@@H](NC(=O)[C@H](Cc1c[nH]c2ccccc12)NC(=O)[C@@H](CCCNC(N)=O)NC(=O)[C@@H](N)Cc1ccc(O)cc1)c1ccco1 . Value?
Data returned: > 5 h

Sourced from ChEMBL document CHEMBL4627340
